system: L1210 leukemia ip in BDF1 mice, survival T/C; experiment: NCI In Vivo Anticancer Drug Screen. Data for tumor model L1210 Leukemia (intraperitoneal) in B6D2F1 (BDF1) mice; conditions: endpoint: mean survival time; dose: 100.0 mg/kg/injection; schedule: Q01DX009 (ip); vehicle: other; higher = longer survival
Toxic doses and inconclusive results are not listed.
MEASUREMENT_LABEL: T/C

>>> print(df.to_string())
                                   compound        meas_value
0               CCCCCCCCCCCCNC(=O)c1ccccc1O   91 % of control
1                      CCCCNC(=O)C(=O)NCCCC   90 % of control
2  COc1ccc(Br)cc1/C=N\NS(=O)(=O)c1ccc(C)cc1  100 % of control

Ask | Name the recorded T/C for NC1(C(=O)O)C2CC3CC(C2)CC1C3 (centres undefined) .
Reply | 105 % of control

###

test system: L1210 leukemia ip in BDF1 mice, survival T/C; experiment: NCI In Vivo Anticancer Drug Screen. Data for tumor model L1210 Leukemia (intraperitoneal) in B6D2F1 (BDF1) mice; conditions: endpoint: mean survival time; dose: 5.0 mg/kg/injection; schedule: Q01DX001 (ip); vehicle: saline; higher = longer survival
Inconclusive results and toxic doses are left out.
Here the recorded T/C is given for each entry.

>>> print(df.to_string())
                           compound                            assayed_system  measurement_label        meas_value
0  CN(C)CCCNc1c2ccccc2nc2ccc(F)cc12  L1210 leukemia ip in BDF1 mice, survival T/C                T/C  100 % of control

Ask | Could you tell me which T/C is on file for OC(C1CO1)C(O)C1CO1 (stereo not given) ?
Reply | 214 % of control

Ask | And then N#CCC(C#N)C1C=CCC1 (stereo not given) , what is it?
Reply | 97 % of control

Ask | Same again, this time with `Nc1ncc2[nH]c(I)nc2n1`
Reply | 98 % of control

Ask | And the next one, CC1CCC2(O)C3(C)CC(=O)OC2(C1O)C1(O)C(C)C(O)(C(C)C)C(O)C31O (stereo not given) ?
Reply | 101 % of control

###

test system: L1210 leukemia ip in BDF1 mice, survival T/C; assay: NCI In Vivo Anticancer Drug Screen. Data for tumor model L1210 Leukemia (intraperitoneal) in B6D2F1 (BDF1) mice; settings: endpoint: mean survival time; dose: 150.0 mg/kg/injection; schedule: Q01DX001 (ip); vehicle: carboxymethylcellulose (CMC); higher = longer survival
Inconclusive results and toxic doses are left out.
Recorded T/C for the following molecules

>>> print(df.to_string())
                                   molecule  measurement_label       meas_value
0  CCOC(=O)Nc1ccc2c(c1)/C(=N\NC(=S)NC)c1ccccc1-2                T/C  92 % of control

Ask | Which T/C is listed for O=C(CNC(=O)OCc1ccccc1)NC(Cc1ccccc1)C(=O)Oc1c(Cl)c(Cl)c(Cl)c(Cl)c1Cl (stereo not drawn) ?
Reply | 98 % of control

Ask | Let us now turn to COc1ccc2c3c1OC1C(OS(=O)(=O)c4ccc(C)cc4)C=CC4C(C2)N(C)CCC341 (stereo not drawn)
Reply | 97 % of control

Ask | Same thing, different molecule: Cc1cc(C)c(C(=O)OC(C)CNC2CCCCC2)c(C)c1 (stereo not drawn)
Reply | 102 % of control

Ask | Same for CC1CCc2cc3c4ccccc4n(C)c3cc2C1 (stereo not drawn)
Reply | 109 % of control

Ask | Request: `CNc1ccccn1`
Reply | 97 % of control

Ask | Another: CCN(CC)CCCC(C)Nc1ccccn1 (stereo not drawn)
Reply | 100 % of control

Ask | Next molecule: `CCOc1cccc(OC(C)=O)c1`
Reply | 90 % of control
